test system: ATP; experiment: switch fluorescence ratio, 500 uM ATP over buffer (Cy3 cluster intensity, sum of 5 cycles each) (fold (ratio)); higher = stronger signal-on switching upon ATP binding; sequences stand for … in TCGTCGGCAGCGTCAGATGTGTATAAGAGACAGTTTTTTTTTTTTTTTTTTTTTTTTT…TC; settings: aptamer strand: ATP DNA aptamer (quencher-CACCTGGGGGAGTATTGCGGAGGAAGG + anchor), 100 nM annealed; ATP concentration: 500 uM;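 further: ATP exposure 15 min at 22 °C before imaging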
Note to self: values exactly at 1 are Met. So switch fluorescence ratio at or above 1 is Met, below is Not met.

INSERT INTO measurements (seq, category) VALUES
  ('ATCACTGATT', 'Met'),
  ('GGGGGGTTGC', 'Not met'),
  ('TAATGATTTT', 'Not met'),
  ('TCGGTAGGGC', 'Met'),
  ('GAAGTTGCCT', 'Met'),
  ('ACTTGGGAAT', 'Met'),
  ('ACCGCTCGAA', 'Met');

---

test system: ATP; assay: switch fluorescence ratio, 500 uM ATP over buffer (Cy3 cluster intensity, sum of 5 cycles each) (fold (ratio)); higher = stronger signal-on switching upon ATP binding; sequences stand for … in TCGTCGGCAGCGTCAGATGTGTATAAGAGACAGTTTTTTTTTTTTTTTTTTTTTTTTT…TC; settings: aptamer strand: ATP DNA aptamer (quencher-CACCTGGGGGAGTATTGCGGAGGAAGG + anchor), 100 nM annealed; ATP concentration: 500 uM;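 further: ATP exposure 15 min at 22 °C before imaging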
Entries and their switch fluorescence ratio
property: switch fluorescence ratio

INSERT INTO results (seq, study_target, reported_value) VALUES
  ('CTGGATGACA', 'ATP', 0.986),
  ('CATAGGGCCA', 'ATP', 1),
  ('GTGTGGGGAT', 'ATP', 1),
  ('TGGTACGGGA', 'ATP', 0.999),
  ('CGTTAAGTTC', 'ATP', 0.993),
  ('GATGTTGCCG', 'ATP', 1.05),
  ('AGCTGTTTAC', 'ATP', 1.09),
  ('TTTGTCAAGG', 'ATP', 1.02),
  ('GGCCGGTGAA', 'ATP', 0.984),
  ('GGCGGGGGAG', 'ATP', 1.03),
  ('TCGGGGCAGG', 'ATP', 0.988),
  ('AATTTGCTAA', 'ATP', 0.981),
  ('TAGCAAAAAG', 'ATP', 1.02),
  ('AGCGGGGCGT', 'ATP', 1.01),
  ('TTGGCGAGGG', 'ATP', 1.01),
  ('TTTAATTCTT', 'ATP', 1),
  ('TAGGGCATTT', 'ATP', 1.03),
  ('CCACTAGTCG', 'ATP', 1.02),
  ('GGGGAGATGT', 'ATP', 1.01),
  ('ATATGTGGCT', 'ATP', 0.99),
  ('TTCGTGTAAG', 'ATP', 1.02),
  ('TTTTATAAGG', 'ATP', 1.01),
  ('CACGGGGTCG', 'ATP', 1.04),
  ('TTTGTGATGG', 'ATP', 0.954),
  ('GACCCGGGTT', 'ATP', 1.11),
  ('TCGTTTGGAG', 'ATP', 0.998),
  ('GAAGGTTATG', 'ATP', 1),
  ('AGGGGAAATG', 'ATP', 0.964),
  ('GCCTTGGACT', 'ATP', 0.976),
  ('GCAAACGGGG', 'ATP', 1.07),
  ('TGAACTCTAG', 'ATP', 1.02),
  ('AATGTAGCAC', 'ATP', 1.05),
  ('TTTAGGCCAT', 'ATP', 1.02),
  ('AAAAGGATAG', 'ATP', 0.954),
  ('AATATGATAA', 'ATP', 1.01),
  ('AAGTAGTTAC', 'ATP', 1.05),
  ('TGTGTTGGTC', 'ATP', 1.04),
  ('AGGAGGCGTT', 'ATP', 0.992),
  ('ATTATTGGCA', 'ATP', 0.999),
  ('AAATCGCAGA', 'ATP', 1),
  ('ATATTAAGAT', 'ATP', 0.988),
  ('GGTATACTTA', 'ATP', 1.04),
  ('GATATAGTGT', 'ATP', 0.991);

---

test system: ATP; assay: switch fluorescence ratio, 500 uM ATP over buffer (Cy3 cluster intensity, sum of 5 cycles each) (fold (ratio)); higher = stronger signal-on switching upon ATP binding; sequences stand for … in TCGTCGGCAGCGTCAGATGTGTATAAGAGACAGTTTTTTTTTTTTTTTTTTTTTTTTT…TC; conditions: aptamer strand: ATP DNA aptamer (quencher-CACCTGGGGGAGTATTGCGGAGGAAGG + anchor), 100 nM annealed; ATP concentration: 500 uM;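 further: ATP exposure 15 min at 22 °C before imaging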
Items are presented alongside their recorded switch fluorescence ratio.
property: switch fluorescence ratio

INSERT INTO results (seq, reported_value) VALUES
  ('GATGGGATGG', 0.993),
  ('GTAGTTTTTT', 1.04),
  ('AGGGTGATTA', 1.01),
  ('AGACCCTTTT', 0.994),
  ('GCTGAATAAG', 0.982),
  ('TTGTAGGTAT', 0.999),
  ('CTGATGTGGC', 1.06),
  ('CTTGTATGAG', 0.989),
  ('TGATGTTTTT', 1.01),
  ('TAAAGCGTTG', 0.966),
  ('CGGGGGAAAC', 0.977),
  ('TGCAATATAT', 1.14),
  ('GTGGGCTTGT', 0.979),
  ('GTTTAAATTC', 1),
  ('TGTTTGGTGC', 1.54),
  ('TTGTTCGGGG', 1.03),
  ('GGTGATTTGT', 1),
  ('TGTTTCTCGC', 1.05),
  ('TTTACGAAAA', 1.12),
  ('TTATTGCTGT', 0.989),
  ('CCAAATTTAA', 1.03),
  ('CAGTGAGGGG', 0.984),
  ('CTTAGGGTTT', 0.988),
  ('GCCTTCCCGG', 1.9),
  ('AAAGAACCG', 1.09),
  ('TTATACTCTT', 1.01),
  ('AAGGATGCAT', 1.03),
  ('AGATGGGGCC', 1),
  ('CATAGGGGAA', 1.01),
  ('ATCGGGAGGG', 1),
  ('CAAATCTTGT', 1.03),
  ('TCTGGATTGT', 0.973),
  ('TGAAATCATA', 0.996),
  ('GAGTCTATTG', 1.02),
  ('AATAATTAAA', 0.986),
  ('GATGATTCTG', 1),
  ('GCGCGCACAT', 1.01),
  ('TTTGGTGGGT', 0.975),
  ('GGGCCGGTTT', 1),
  ('ATGGTGTTAT', 0.989),
  ('TCGGTCGATT', 1.02),
  ('AGTTAAAGAG', 1.01),
  ('GGGTTTTAAC', 0.98);

---

test system: ATP; assay: switch fluorescence ratio, 500 uM ATP over buffer (Cy3 cluster intensity, sum of 5 cycles each) (fold (ratio)); higher = stronger signal-on switching upon ATP binding; sequences stand for … in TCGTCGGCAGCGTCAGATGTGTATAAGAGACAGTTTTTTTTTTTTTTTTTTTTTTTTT…TC; conditions: aptamer strand: ATP DNA aptamer (quencher-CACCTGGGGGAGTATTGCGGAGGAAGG + anchor), 100 nM annealed; ATP concentration: 500 uM;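 further: ATP exposure 15 min at 22 °C before imaging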
property: switch fluorescence ratio

INSERT INTO results (seq, study_target, reported_value) VALUES
  ('CGGGTATGGT', 'ATP', 1),
  ('GCGTGTTAGT', 'ATP', 1.02),
  ('ACCCGGGCAG', 'ATP', 1.05),
  ('AAGGCTCTTG', 'ATP', 0.986),
  ('CCAAAGGTTT', 'ATP', 1.13),
  ('GCGTCTGGGC', 'ATP', 0.992),
  ('ATCTTTATGG', 'ATP', 0.964),
  ('CGGGGTGCGG', 'ATP', 1),
  ('TTATTTATGT', 'ATP', 1),
  ('TCATATTCTA', 'ATP', 0.985),
  ('CAGGGAGGGA', 'ATP', 0.992),
  ('AGGCCCGGAG', 'ATP', 1.05),
  ('TTTAATACTT', 'ATP', 1.03),
  ('AAGTAGGAGC', 'ATP', 1.06),
  ('GGATCGAGAC', 'ATP', 0.975),
  ('TAAGGGGTGT', 'ATP', 1.03),
  ('TTGTTAGAAT', 'ATP', 1.04),
  ('CTTAGTTGGT', 'ATP', 0.965),
  ('AGAGATGTAG', 'ATP', 0.966),
  ('GCCGTGGAGA', 'ATP', 1.03);
